# credit: PubChem BioAssay

viability values by entry
- TEST DESCRIPTION: reversal of MRP1-mediated doxorubicin resistance, pilot screen, H69AR cells, doxorubicin co-treatment (AID 601)
- RUN CONDITIONS: H69AR cells + 2 uM doxorubicin, CellTiter-Glo, 72 h; measured here: viability with 2 uM doxorubicin; at 10 µM; stronger effect = lower value
Reply numerically in %, unit not repeated.

Below: 5 molecules and their reported viability.
MOLECULE: COc1ccc(OC)c(NC(=O)C23CCC(C)(C(=O)C2)C3(C)C)c1 (stereo not drawn)
viability, %: 103

MOLECULE: COC(=O)C1=C(C)NC(C)=C(C(=O)OC)C1c1ccccc1[N+](=O)[O-]
viability, %: 2.41

MOLECULE: S=c1[nH]nc(Cc2ccccc2)n1Cc1ccco1
viability, %: 99.1

MOLECULE: CC1CCCC(NC(=O)CN2CCN(Cc3ccc(Cl)cc3)C2=O)C1C (stereo not drawn)
viability, %: 86.4

MOLECULE: COc1ccc(-c2nnc(-c3ccc(N)cc3)o2)cc1
viability, %: 91.1

Problem: Given the entry N#CC1=C(N)N(c2ccccc2)C(c2ccccc2)C1(C#N)C#N (stereo not drawn) , report its measured viability.
Solution: 78.8

Problem: Same question for COc1ccc2c(=O)c3c(=O)n(Cc4ccco4)c(-c4cc(OC)c(OC)c(OC)c4)nc3oc2c1 please.
Solution: 37.8

Problem: Please answer likewise for Cc1cn(C2CC3OCC3O2)c(=O)[nH]c1=O (stereo not drawn)
Solution: 98.5

Problem: And what about the molecule CCn1ncc(C2=NOC(C(=O)Nc3ccc4c(c3)OCO4)C2)c1C (stereo not drawn) ?
Solution: 93.9
